System: K. pneumoniae ATCC 13883
assay_notes: Broth dilution MIC, K. pneumoniae ATCC 13883
Assay type: cell-based
recorded_conditions: Klebsiella pneumoniae, ATCC13883, Table 1; range 64 down to 0.12 μg/ml; read-out: MIC K. pneumoniae ATCC 13883
Catalogue of compounds with associated MIC

Look over these answered cases.
Nc1ccc(-c2ccc3cc(-c4ccc(Nc5ccc(C6=NCCN6)cc5)cc4)[nH]c3c2)cc1 [SKI-20]	> 64 µg/mL
c1ccc(Nc2ccc(-c3cc4ccc(C5=NCCN5)cc4[nH]3)cc2)cc1 [SKI-2]	32 µg/mL
c1cncc(Nc2ccc(-c3cc4ccc(C5=NCCN5)cc4[nH]3)cc2)c1 [SKI-4]	> 64 µg/mL
c1cc(-c2cc3ccc(C4=NCCN4)cc3[nH]2)ccc1NC1CCNCC1 [SKI-6]	> 64 µg/mL
CN1CCC(Nc2ccc(-c3cc4ccc(C5=NCCN5)cc4[nH]3)cc2)CC1 [SKI-7]	> 64 µg/mL
c1cnc(-c2ccc(Nc3ccc(-c4cc5ccc(C6=NCCN6)cc5[nH]4)cc3)cc2)cn1 [SKI-10]	4 µg/mL
c1cc(-c2cc3ccc(C4=NCCN4)cc3[nH]2)ccc1Nc1ccc(N2CCOCC2)cc1 [SKI-11]	> 64 µg/mL
c1ccc(-c2ccc(Nc3ccc(-c4cc5ccc(C6=NCCN6)cc5[nH]4)cc3)cc2)nc1 [SKI-12]	8 µg/mL

Request: # query: MIC of entry c1cc(C2=NCCN2)ccc1Nc1ccc(-c2cc3ccc(C4=NCCN4)cc3[nH]2)cc1 [SKI-1]
Response: 1 µg/mL

Request: # query: MIC of entry Nc1ccc(Nc2ccc(-c3cc4ccc(C5=NCCN5)cc4[nH]3)cc2)cc1 [SKI-8]
Response: > 64 µg/mL

====

System: E. faecalis ATCC 29212 (VRE)
assay_notes: Broth dilution MIC, E. faecalis ATCC 29212
Format: cell-based
recorded_conditions: Table 2; broth dilution MIC in ug/ml; read-out: MIC E faecalis ATCC 29212 VRE
Catalogue of compounds with associated MIC
Number plus unit, in that order.

Look over these answered cases.
CN1CCC(Nc2ccc(-c3cc4ccc(C5=NCCN5)cc4[nH]3)cc2)CC1	16 µg/mL
c1cc(C2=NCCN2)ccc1Nc1ccc(-c2cc3ccc(C4=NCCN4)cc3[nH]2)cc1	0.25 µg/mL
c1ccc(-c2ccc(Nc3ccc(-c4cc5ccc(C6=NCCN6)cc5[nH]4)cc3)cc2)nc1	0.25 µg/mL

Now look at this one.
Request: # query: MIC of entry `c1cc(-c2cc3ccc(C4=NCCN4)cc3[nH]2)ccc1Nc1ccc(N2CCOCC2)cc1`
Response: 4 µg/mL

====

Catalogue of molecules with associated MIC
System: E. coli ECM 1694
assay_notes: Broth dilution MIC, E. coli ECM 1694
Format: cell-based
recorded_conditions: Escherichia coli, ECM1694, Table 2; broth dilution MIC in ug/ml; read-out: MIC E. coli ECM 1693
Please reply with the bare figure in µg/mL and do not write the unit itself.

Look over these answered cases.
c1ccc(-c2ccc(Nc3ccc(-c4cc5ccc(C6=NCCN6)cc5[nH]4)cc3)cc2)nc1	4
c1cc(-c2cc3ccc(C4=NCCN4)cc3[nH]2)ccc1NC1CCNCC1	4

Request: # query: MIC of entry `CN1CCC(Nc2ccc(-c3cc4ccc(C5=NCCN5)cc4[nH]3)cc2)CC1`
Response: 0.25

Request: # query: MIC of entry `c1cnc(-c2ccc(Nc3ccc(-c4cc5ccc(C6=NCCN6)cc5[nH]4)cc3)cc2)cn1`
Response: 0.25
